For each of the compounds below, state its MIC90.
system: Anaerococcus prevotii; assay: Antibacterial activity against Anaerococcus prevotii isolated from patient with diabetic foot infection after 44 to 48 hrs by agar dilution method; type: functional
One number for each entry, in µg/mL.

COMPOUND: Cc1ncc([N+](=O)[O-])n1CCO
MIC90, µg/mL: 1
--
COMPOUND: CCC[C@@H]1C[C@@H](C(=O)N[C@@H]([C@H]2O[C@H](SC)[C@H](O)[C@@H](O)[C@H]2O)[C@H](C)Cl)N(C)C1
MIC90, µg/mL: 64
--
COMPOUND: C[C@@H](O)[C@H]1C(=O)N2C(C(=O)O)=C(S[C@@H]3CN[C@H](C(=O)Nc4cccc(C(=O)O)c4)C3)[C@H](C)[C@H]12
MIC90, µg/mL: 0.25
--
COMPOUND: C[C@@H](O)[C@H]1C(=O)N2C(C(=O)O)=C(S[C@@H]3CN[C@H](CNS(N)(=O)=O)C3)[C@H](C)[C@H]12
MIC90, µg/mL: 0.06
--
COMPOUND: C[C@@H](O)[C@H]1C(=O)N2C(C(=O)O)=C(SCCNC=N)C[C@H]12 [IMIPENEM ANHYDROUS]
MIC90, µg/mL: 0.03

Continue with the compound presented below.
## Input Field request: MIC90 | item: C[C@@H](O)[C@H]1C(=O)N2C(C(=O)O)=C(S[C@@H]3CN[C@H](C(=O)N(C)C)C3)[C@H](C)[C@H]12
## Output 0.125

Data credit: ChEMBL document CHEMBL1153560
